Can you tell me IC50 for the items I'm about to list?
MEASUREMENT TARGET: T1, Rat IL-23R_huFC (rat; human, UniProt F1LX96 39-369)
T1 sequence: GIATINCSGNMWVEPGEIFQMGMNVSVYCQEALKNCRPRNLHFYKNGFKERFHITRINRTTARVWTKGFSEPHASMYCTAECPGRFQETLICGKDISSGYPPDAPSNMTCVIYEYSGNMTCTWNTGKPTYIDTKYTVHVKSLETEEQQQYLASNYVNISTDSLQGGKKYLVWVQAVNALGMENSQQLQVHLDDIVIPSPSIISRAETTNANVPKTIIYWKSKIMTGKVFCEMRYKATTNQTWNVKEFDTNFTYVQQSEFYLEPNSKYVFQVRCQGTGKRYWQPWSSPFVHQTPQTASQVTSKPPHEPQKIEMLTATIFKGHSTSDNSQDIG
TEST DETAILS: rat IL-23R competitive ELISA
Bridges are numbered along the chain shown (N, C = ends). [ ]: non-standard residue; d: D form. AEA = NCCOCC(=O)O; βAla = NCCC(=O)O
One number for each entry, in µM.

>>> print(df.to_string())
                                     binder  test_result
0  CQTWQCYWRXNGXK (Ac-; [Aib]; [AEA]; [(D)Lys]; -NH2) [Ac-CQTWQCYWR-[Aib]-NG-[AEA]-[(D)Lys]-NH2]         1.06

Shifting focus to the binder that follows.
Prompt: Entry under review: Ac-CQTWQCYW[βAla]VFG[AEA][dK]-NH2 (disulfide 1-6 (inferred)) [Ac-CQTWQCYW-[βAla]-VFG-[AEA]-[(D)Lys]-NH2] . Reported IC50?
Completion: 2.21
